# Experimental system: CRF1R
# Test name: cell-based or functional assay
Endpoint: CRF1R EC50 (µM)
Give just the numeric value; µM need not be written.

Noted for ZGPPISIDLPIFLLRKMIEIEKQEKEKQQAANNARLLARI (not fully specified; C-terminal amide) [SEQ ID NO 282] : its CRF1R EC50 reads 1

Noted for ZGPPISIDLPFWLLRKMIEIEKQEKEKQQAANNRLLLDTI (C-terminal amide) [SEQ ID NO 217] : its CRF1R EC50 reads 0.0947

Noted for ZGPPISIDLPVALLRKMIEIEKQEKEKQQAANNRLLLDTI (C-terminal amide) [SEQ ID NO 305] : its CRF1R EC50 reads 1

Noted for ZGPPISIDLPFQLLRKTIEIEKQEKEKQQATTNARLLDRV (C-terminal amide) [SEQ ID NO 321] : its CRF1R EC50 reads 1

Noted for ZGPPISIDLPTYLLRILIEIEKQEKEKQQAANNRLLLDTI (not fully specified; C-terminal amide) [SEQ ID NO 252] : its CRF1R EC50 reads 0.227

Noted for ZGPPISIDLPYQLLRKVIEIEKQEKEKQQAANNARLLARI (C-terminal amide) [SEQ ID NO 286] : its CRF1R EC50 reads 1

Ref: patent US20030148958A1
